Reported FGFR1 Enz kobs values for a set of compounds
- Assay target: FGFR1 (SEQ ID NO: 1, amino acids 458-765) (Homo sapiens (Human), UniProt P11362)
- Protocol description: LC/MS FGFR1 kobs assay (covalent protein modification)
- Assay type: binding
- Condition details: 500 nM FGFR1, 3 μM compound
Reported metric: FGFR1 Enz kobs (min⁻¹)

C=CC(=O)N1CC(CN2CC(n3cc(-c4cc(OC)c5c(C#N)cnn5c4)cn3)C2)C1; 0.00086
C=CC(=O)N1CC[C@@H](C(=O)N2CCC(n3ncc(-c4cc(OC)c5c(C#N)cnn5c4)c3C)CC2)C1; 0.00058
COc1cc(-c2cnn(C3CCN(CC4(OC)CN(C(=O)/C=C/CN(C)C)C4)CC3)c2C)cn2ncc(C#N)c12; 0.00408
COc1cc(-c2nn(C3CCN(C(=O)C4(F)CN(C(=O)/C=C/CN(C)C)C4)CC3)nc2C)cn2ncc(C#N)c12; 0.00486
C=CC(=O)N1CC(C(=O)N2CCC(n3ncc(-c4cc(OC)c5c(C#N)cnn5c4)c3C)CC2)C1(C)C (stereo not shown); 0.00052
C=CC(=O)N1C2CC1CN(C(=O)N1CCC(n3cc(-c4cc(OC)c5c(C#N)cnn5c4)cn3)CC1)C2; 0.00122
C=CC(=O)N1CCN(c2ccc(-c3cc(OC)c4c(C#N)cnn4c3)cc2)CC1; 0.00044

* * *

- Assay target: FGFR1 (SEQ ID NO: 1, amino acids 458-765) (Homo sapiens (Human), UniProt P11362)
- Protocol description: LC/MS FGFR1 kobs assay (covalent protein modification)
- Type: binding
- Condition details: 500 nM FGFR1, 3 μM compound
- Description: The LC/MS FGFR1 and FGFR3 kobs assays were conducted as follows. […] At each time point, the reaction was quenched with 20 μL of 0.4% formic acid. The extent of protein modification by each compound was determined by LC/MS on an Agilent Technologies 6520 Q-TOF LC/MS. […] Data analysis included five steps. First, the signals for the “DMSO Controls” were analyzed to determine the percent of signal associated with unmodified FGFR1 or FGFR3 at each time point. […]
Reported FGFR1 Enz kobs values for a set of compounds
Reported metric: FGFR1 Enz kobs (min⁻¹)

C=CC(=O)N1CC(S(=O)(=O)N2CCC(n3cc(-c4cc(OC)c5c(C#N)cnn5c4)cn3)CC2)C1; 0.00288
C=CC(=O)N1CC(F)(C(=O)N2CCN(c3cc(C)c(-c4cc(OC)c5c(C#N)cnn5c4)cn3)CC2)C1; 0.00369
COc1cc(-c2cnn(C3CCN(C(=O)C4CN(C(=O)/C=C/CBr)C4)CC3)c2)cn2ncc(C#N)c12; 0.04552
C=CC(=O)N1CC(C(=O)N2CC3CC(C2)N3c2ccc(-c3cc(OC)c4c(C#N)cnn4c3)cn2)C1; 0.00042
C=CC(=O)N1C2COCC1CN(C(=O)N1CCC(n3cc(-c4cc(OC)c5c(C#N)cnn5c4)cn3)CC1)C2; 0.00172

* * *

- Assay target: dephosphorylated FGFR1 (SEQ ID NO: 1, amino acids 458 to 765) (Homo sapiens (Human), UniProt P11362)
Reported IC50 values for a set of compounds
Reported metric: IC50 (µM)

C=CC(=O)N1CC(C(=O)N2C[C@@H]3C[C@H]2CN3c2ccc(-c3cc(OC)c4c(C#N)cnn4c3)cn2)C1; 0.062
C=CC(=O)N1CC2(CCN(C(=O)N3CCC(n4cc(-c5cc(OC)c6c(C#N)cnn6c5)cn4)CC3)C2)C1; 0.073
C=CC(=O)N1CC(C(=O)N2CCC(n3cc(-c4cc(OC)c5c(Cl)cnn5c4)cn3)CC2)C1; 0.12
C=CC(=O)N1CC2(CCN(C(=O)N3CCC(n4cc(-c5cc(OC)c6c(C#N)cnn6c5)cn4)CC3)CC2)C1; 0.157
C=CC(=O)Nc1cccc(C(=O)N2CCC(n3cc(-c4cc(OC)c5c(C#N)cnn5c4)cn3)CC2)c1; 0.112
C=CC(=O)N1CCC(NC(=O)c2ccc(-c3cc(OC)c4c(C#N)cnn4c3)cc2)CC1; 0.129

* * *

- Assay target: phosphorylated FGFR3 (SEQ ID NO: 5, amino acids 449 to 759) (Homo sapiens (Human))
- Sequence (P22607 449-759): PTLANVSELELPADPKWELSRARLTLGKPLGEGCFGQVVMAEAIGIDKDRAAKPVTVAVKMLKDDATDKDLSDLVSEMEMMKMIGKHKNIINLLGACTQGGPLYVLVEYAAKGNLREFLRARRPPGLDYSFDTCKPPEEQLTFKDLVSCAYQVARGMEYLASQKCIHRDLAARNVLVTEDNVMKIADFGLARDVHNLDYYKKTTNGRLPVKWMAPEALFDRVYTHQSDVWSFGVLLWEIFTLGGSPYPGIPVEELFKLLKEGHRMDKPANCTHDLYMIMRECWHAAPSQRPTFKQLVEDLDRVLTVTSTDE
pIC50: −log10 of the molar value.
Values of pIC50 greater than or equal to 8 map to Met; values below map to Not met.

C=CS(=O)(=O)N1CCC2(CC1)CC(C(=O)N1CCC(n3cc(-c4cc(OC)c5c(C#N)cnn5c4)cn3)CC1)C2 [Example 195]; Met
COc1cc(-c2cnc(N3CCN(C(=O)C4(F)CN(C(=O)/C=C/CN(C)C)C4)CC3)cc2C)cn2ncc(C#N)c12 [Example 169]; Not met
C=CC(=O)N1CC(C(=O)N2CCN(c3cnc(-c4cc(OC)c5c(C#N)cnn5c4)cn3)CC2)C1 [Example 116]; Not met
COc1cc(-c2c(C)nn(C3CCN(C(=O)C4(F)CN(C(=O)/C=C/CN(C)C)C4)CC3)c2C)cn2ncc(C#N)c12 [Example 161]; Met
C=CC(=O)N1CC(F)(C(=O)N2CCC(n3cc(-c4cc(OC)c5c(C#N)cnn5c4)cn3)CC2)C1 [Example 37]; Met
C=CC(=O)N1CC(C(=O)N2CCC(n3cc(-c4cc(-c5ccccc5F)c5c(C#N)cnn5c4)cn3)CC2)C1 [Example 131]; Met

* * *

- Assay target: FGFR3 (SEQ ID NO: 5, amino acids 449-759) (Homo sapiens (Human), UniProt P22607)
- Sequence (P22607 449-759): as above
- Protocol description: LC/MS FGFR3 kobs assay (covalent protein modification)
- Format: binding
- Condition details: 500 nM FGFR3, 3 μM compound
Values of FGFR3 Enz kobs greater than or equal to 0.06 min⁻¹ map to Satisfied; values below map to Not satisfied.

C=CC(=O)N1CCC[C@@H](C(=O)N2CC[C@H](n3cc(-c4cc(OC)c5c(C#N)cnn5c4)cn3)C2)C1; Not satisfied
C#CC(=O)N1CC(C(=O)N2CCC(n3cc(-c4cc(OC)c5c(C#N)cnn5c4)cn3)CC2)C1; Satisfied
C=CC(=O)N1CCC(C(=O)N2CC[C@@H](n3cc(-c4cc(OC)c5c(C#N)cnn5c4)cn3)C2)CC1; Not satisfied
C=CC(=O)N1CC(C(=O)N2CCC(n3cc(-c4cc(-c5ccc(NC(=O)C6CC6)cc5F)c5c(C#N)cnn5c4)cn3)CC2)C1; Not satisfied
C=CC(=O)N1CC(OC)(C(=O)N2CCC(n3ncc(-c4cc(OC)c5c(C#N)cnn5c4)c3C)CC2)C1; Not satisfied

* * *

- Assay target: recombinant human FGFR3 (amino acids R397-T806) (Homo sapiens (Human))
- Sequence (P22607 397-806): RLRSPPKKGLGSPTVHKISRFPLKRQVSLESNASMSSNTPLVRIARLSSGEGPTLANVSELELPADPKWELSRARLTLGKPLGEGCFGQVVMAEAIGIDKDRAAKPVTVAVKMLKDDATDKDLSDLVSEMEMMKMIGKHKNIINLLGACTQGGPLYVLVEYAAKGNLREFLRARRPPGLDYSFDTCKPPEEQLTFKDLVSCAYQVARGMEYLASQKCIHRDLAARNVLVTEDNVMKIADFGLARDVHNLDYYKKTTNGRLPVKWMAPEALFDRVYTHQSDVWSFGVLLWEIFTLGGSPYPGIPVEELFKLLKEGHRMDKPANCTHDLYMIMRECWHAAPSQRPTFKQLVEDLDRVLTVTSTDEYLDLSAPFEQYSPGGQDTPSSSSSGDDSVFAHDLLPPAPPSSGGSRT
- Protocol description: FGFR3 enzyme activity assay (LanthaScreen TR-FRET)
- Condition details: 25 μM ATP, 10 min incubation at 22° C., average of multiple determinations if made, read-out: FGFR3 Enz FRET IC50
pIC50: −log10 of the molar value.
Reported metric: pIC50

C=CC(=O)Nc1cccc(C(=O)N2CCC(n3cc(-c4cc(OC)c5c(C#N)cnn5c4)cn3)CC2)c1 [Example 22]; 8.40
C=CC(=O)N1CC(C(=O)N2CCC(n3cc(-c4cc(-c5ccc(NC(=O)C6CC6)cc5F)c5c(C#N)cnn5c4)cn3)CC2)C1 [Example 130]; 8.70
C=CC(=O)N[C@H]1CC[C@H](C(=O)N2CCC(n3cc(-c4cc(OC)c5c(C#N)cnn5c4)cn3)CC2)CC1 [Example 18]; 8.70
C=CC(=O)Nc1ccc(C(=O)N2CC[C@@H](n3cc(-c4cc(OC)c5c(C#N)cnn5c4)cn3)C2)cc1 [Example 55]; 8.05
C=CC(=O)Nc1ccc(C(=O)N2CCC[C@@H](n3cc(-c4cc(OC)c5c(C#N)cnn5c4)cn3)C2)cc1 [Example 23]; 7.80
C=CC(=O)N1C[C@H]2C[C@@H]1CN2C(=O)N1CCC(n2cc(-c3cc(OC)c4c(C#N)cnn4c3)cn2)CC1 [Example 5]; 8.15
C=CS(=O)(=O)N[C@@H]1CC[C@H](C(=O)N2CCC(n3cc(-c4cc(OC)c5c(C#N)cnn5c4)cn3)CC2)C1 [Example 191]; 8.40
C=CC(=O)N1CC(C(=O)N2CCC(n3cc(-c4cc(OCC)c5c(C#N)cnn5c4)cn3)CC2)C1 [Example 126]; 8.30
C=CC(=O)N1CCC(F)(C(=O)N2CCC(n3cc(-c4cc(OC)c5c(C#N)cnn5c4)cn3)CC2)CC1 [Example 13]; 8.52
C=CC(=O)N1CC(C(=O)N2CCC(n3cc(-c4cc(OC)c5c(C#N)cnn5c4)cn3)CC2)C1 [Example 36]; 8.40
C=CC(=O)N1CC(C(=O)N2CCC(n3cc(-c4cc(OC)c5c(C#N)cnn5c4)cn3)CC2)C1(C)C (centres unmarked) [Example 43]; 8.70
COc1cc(-c2cnn(C3CN(C(=O)C4(F)CN(C(=O)/C=C/CN(C)C)C4)C3)c2C)cn2ncc(C#N)c12 [Example 160]; 7.47
C=CC(=O)N1CC(C(=O)N2CCC(n3cc(-c4cc(OC)c5c(C#N)cnn5c4)cn3)CC2)C1C (centres unmarked) [Example 42]; 8.70
C=CC(=O)N1CC(C(=O)N2CCC(n3cc(-c4cc(C(C)C)c5c(C#N)cnn5c4)cn3)CC2)C1 [Example 129]; 8.22
C=CC(=O)N1CC(C(=O)N2CC3(C2)CN(c2ccc(-c4cc(OC)c5c(C#N)cnn5c4)cn2)C3)C1 [Example 104]; 7.70
C=CC(=O)N1CC(C(=O)N2CCN(c3ccc(-c4cc(OC)c5c(C#N)cnn5c4)nn3)CC2)C1 [Example 115]; 7.74
CC#CC(=O)N1CC(F)(C(=O)N2CCC(n3ncc(-c4cc(OC)c5c(C#N)cnn5c4)c3C)CC2)C1 [Example 156]; 7.62
C=CC(=O)N1CC(C(=O)N2CCC(n3ncc(-c4cc(OC)c5c(C#N)cnn5c4)c3C)CC2)C1 [Example 84]; 8.22
C=CC(=O)N1CC(C(=O)N2CC3CC(C2)N3c2ccc(-c3cc(OC)c4c(C#N)cnn4c3)cn2)C1 [Example 105]; 6.90
C=CC(=O)N1CC(C)(C(=O)N2CCC(n3cc(-c4cc(OC)c5c(C#N)cnn5c4)cn3)CC2)C1 [Example 38]; 8.52
COC/C=C/C(=O)N1CC(F)(C(=O)N2CCC(n3ncc(-c4cc(OC)c5c(C#N)cnn5c4)c3C)CC2)C1 [Example 154]; 7.72
C=CC(=O)N1CCC(F)(C(=O)N2CCC(n3cc(-c4cc(OC)c5c(C#N)cnn5c4)cn3)CC2)C1 (centres unmarked) [Example 30]; 8.70
C=CC(=O)N(C)c1ccc(CN2CCC(n3cc(-c4cc(OC)c5c(C#N)cnn5c4)cn3)CC2)cc1 [Example 10]; 8.22
C=CC(=O)N1CC(C(=O)N2CCN(c3ncc(-c4cc(OC)c5c(C#N)cnn5c4)cn3)CC2)C1 [Example 133]; 6.58
COc1cc(-c2cnn(C3CCN(C(=O)C4CN(C(=O)/C=C/CN(C)C)C4)CC3)c2)cn2ncc(C#N)c12 [Example 143]; 8.70
C=CC(=O)N1CC(C(=O)N2C3CCC2CN(c2ccc(-c4cc(OC)c5c(C#N)cnn5c4)cn2)C3)C1 [Example 50]; 8.00

Source of measurements: patent US12180207B2
